Data origin, for the record: patent EP2033955A1

# Tested on: human peripheral blood neutrophils
# Test Name: Inhibition of fMLP-induced neutrophil chemotaxis (48-well microchemotaxis chamber, leading-front method)
# Type: cell-based
# Condition Description: fMLP-OMe 10^-9 M; meaning of the percentage not explained
Quantity Kind: Percentage in brackets after the fMLP CI50 bound
Lab note: write values as number then unit, every time.

Field: example entries. Status: answers known.
[[record]]
compound = "CCOC(=O)c1cnn(CC(O)CC)c1NC(=O)NC(C)C (centres unmarked)"
experimental_result = "52%"

[[record]]
compound = "CCOC(=O)c1cnn(CC(C)O)c1NC(=O)NN1CCN(Cc2ccccc2)CC1 (centres unmarked)"
experimental_result = "63%"

[[record]]
compound = "CCOC(=O)c1cnn(CC(O)CC)c1NC(=O)NCc1ccccc1 (centres unmarked)"
experimental_result = "54%"

[[record]]
compound = "CCOC(=O)c1cnn(CC(C)O)c1NC(=O)Nc1cccc(F)c1 (centres unmarked)"
experimental_result = "60%"


# evaluate next
Problem: Data request, read-out Percentage in brackets after the fMLP CI50 bound, for CCOC(=O)c1cnn(CC(C)O)c1NC(=O)Nc1ccc(F)cc1 (centres unmarked)
Result: 55%

----------
# Tested on: human peripheral blood neutrophils
# Test Name: Inhibition of fMLP-induced neutrophil chemotaxis (48-well microchemotaxis chamber, leading-front method)
# Format: cell-based
# Condition Description: Homo sapiens, Neutrophil; fMLP-OMe 10^-9 M in lower compartment; neutrophils pre-incubated ten minutes with compound; means of six experiments; read-out: Inhibition of the migration of neutrophils induced by fMLP CI50
pIC50: −log10 of the molar value.
Returns fulfilled if the recorded pIC50 is greater than or equal to 8, and not fulfilled otherwise.

[[record]]
compound = "CCOC(=O)c1cnn(CC(C)O)c1NC(=O)Nc1ccccc1F (stereo not drawn) [Ie]"
group_label = "not fulfilled"


Problem: Kindly determine if pIC50 recorded for CCCC(O)Cn1ncc(C(=O)OCC)c1NC(=O)NC(C)C (stereo not drawn) [Ip] is above or exactly 8.
Result: not fulfilled

Problem: Queued: CCOC(=O)c1cnn(CC(O)CC)c1NC(=O)Nc1cccc(F)c1 (stereo not drawn) [Im]
Result: fulfilled

Problem: Queued: CCCC(O)Cn1ncc(C(=O)OCC)c1NC(=O)NCc1ccccc1 (stereo not drawn) [Iq]
Result: fulfilled

----------
What IC50 was measured for each of the following?
# Test system: human peripheral blood neutrophils
# Test Name: Inhibition of IL8 (CXCL8)-induced neutrophil chemotaxis (48-well microchemotaxis chamber, leading-front method)
# Type: cell-based
# Condition Description: Homo sapiens, Neutrophil; CXCL8 10^-8 M in lower compartment; neutrophils pre-incubated ten minutes with compound; means of six experiments; read-out: Inhibition of the migration of neutrophils induced by IL8 CI50
One number for each entry, in pM.

Field: example entries. Status: answers known.
[[record]]
compound = "CCOC(=O)c1cnn(CC(O)c2ccccc2)c1NC(=O)Nc1cccc2ccccc12 (stereo not shown)"
quantity_kind = "IC50"
experimental_result = 7.6

[[record]]
compound = "CCOC(=O)c1cnn(CC(O)CC)c1NC(=O)NC(C)C (stereo not shown)"
quantity_kind = "IC50"
experimental_result = 4.2

[[record]]
compound = "CCOC(=O)c1cnn(CC(O)CC)c1NC(=O)NCc1ccccc1 (stereo not shown)"
quantity_kind = "IC50"
experimental_result = 7.4

[[record]]
compound = "CCOC(=O)c1cnn(CC(O)CC)c1NC(=O)Nc1ccccc1F (stereo not shown)"
quantity_kind = "IC50"
experimental_result = 1.6

[[record]]
compound = "CCOC(=O)c1cnn(CC(O)CC)c1NC(=O)Nc1cccc(F)c1 (stereo not shown)"
quantity_kind = "IC50"
experimental_result = 360


For every item in the list below, what is its measured IC50?
1. CCOC(=O)c1cnn(CC(C)O)c1NC(=O)Nc1ccc(F)cc1 (stereo not shown)
2. CCOC(=O)c1cnn(CC(O)CC)c1NC(=O)Nc1cccc2ccccc12 (stereo not shown)
3. CCOC(=O)c1cnn(CC(O)CC)c1NC(=O)Nc1ccc(F)cc1 (stereo not shown)
4. CCCC(O)Cn1ncc(C(=O)OCC)c1NC(=O)NCc1ccccc1 (stereo not shown)

Result:
[200, 9600, 1900, 3.2]

Problem: Data request, read-out IC50, for CCCC(O)Cn1ncc(C(=O)OCC)c1NC(=O)NC(C)C (stereo not shown)
Result: 1000

----------
# Test system: human peripheral blood neutrophils
# Test Name: Inhibition of fMLP-induced neutrophil chemotaxis (48-well microchemotaxis chamber, leading-front method)
# Format: cell-based
# Condition Description: fMLP-OMe 10^-9 M in lower compartment; neutrophils pre-incubated ten minutes with compound; means of six experiments; read-out: Inhibition of the migration of neutrophils induced by fMLP CI50
# Method: The inhibitory activity of the compounds according to the present invention towards fMLP- or CXCL8-induced chemotaxiswas evaluated following methods described in the literature (Giordano, C. et al., Bioorg. Med. Chem. 2006, 14, 2642 and documents cited in such article). […] The directional movement or chemotaxis was measured with the same chamber used for the random locomotion, adding fMLP-OMe 10^-9 M or CXCL8 10^-8 M in the lower compartment. […]
Quantity Kind: IC50 (nM)
One number for each entry, in nM.

[[record]]
compound = "CCOC(=O)c1cnn(CC(O)CC)c1NC(=O)NN1CCN(Cc2ccccc2)CC1 (centres unmarked)"
system_tested = "human peripheral blood neutrophils"
quantity_kind = "IC50"
experimental_result = 2000


# evaluate next
Problem: Data request, read-out IC50, for CCCC(O)Cn1ncc(C(=O)OCC)c1NC(=O)NN1CCN(Cc2ccccc2)CC1 (centres unmarked)
Result: 1.1

----------
# Tested on: human peripheral blood neutrophils
# Test Name: Inhibition of fMLP-induced neutrophil chemotaxis (48-well microchemotaxis chamber, leading-front method)
# Format: cell-based
# Condition Description: Homo sapiens, Neutrophil; fMLP-OMe 10^-9 M in lower compartment; neutrophils pre-incubated ten minutes with compound; means of six experiments; read-out: Inhibition of the migration of neutrophils induced by fMLP CI50
Quantity Kind: IC50 (nM)
Answers are plain numbers, in nM.

[[record]]
compound = "CCOC(=O)c1cnn(CC(C)O)c1NC(=O)NCc1ccccc1 (centres unmarked)"
unit_label = "nM"
experimental_result = 15


For every item in the list below, what is its measured IC50?
1. CCOC(=O)c1cnn(CC(O)CC)c1NC(=O)Nc1ccccc1F (centres unmarked)
2. CCOC(=O)c1cnn(CC(C)O)c1NC(=O)Nc1cccc2ccccc12 (centres unmarked)
3. CCOC(=O)c1cnn(CC(O)CC)c1NC(=O)Nc1ccc(F)cc1 (centres unmarked)
4. CCOC(=O)c1cnn(CC(C)O)c1NC(=O)NC(C)C (centres unmarked)

Result:
1: 120; 2: 9.8; 3: 3.2; 4: 90

----------
# System: human peripheral blood neutrophils
# Test Name: Inhibition of fMLP-induced neutrophil chemotaxis (48-well microchemotaxis chamber, leading-front method)
# Format: cell-based
# Condition Description: fMLP-OMe 10^-9 M; unit µM; highest tested concentration 10^-5 M; read-out: Inhibition of the migration of neutrophils induced by fMLP CI50
Quantity Kind: IC50

Problem: Given the entry CCOC(=O)c1cnn(CC(C)O)c1NC(=O)NN1CCN(Cc2ccccc2)CC1 (stereo not shown) [Id] , what IC50 was observed with human peripheral blood neutrophils?
Result: > 10 µM
